src = patent US20120231467A1

# experimental_system: Toxin B, native full-length (270 kDa) (Clostridium difficile) (UniProt P18177)
# experimental_details: filter
# study_conditions: 2NapdU at every N (replaces all dT)
reported_endpoint: Kd (nM)
Numeric answer only, unit nM assumed.

CNNNNNNACCGCNGCANGACNNNAGCGGCAGNCGNGNGNG [5566-77] has a reported Kd of 0.23
